Target: HLA-A*02:01 (Homo sapiens, UniProt P04439, D140Y/D185E/D98H/E176V/E277Q/G131W/G231S/I119V/I121R/I166T/I218V/L300P/L318F/N151K/N90K/P208A/P217A/Q86G/Q94H/R138H/R169H/T345S)
Construct: made in house
Assay: MHC binding assay: UV-ligand exchange with β2m ELISA (peptide exchange yield)
Conditions: binding to HLA-A*02:01 evaluated by peptide exchange yield (UV-ligand exchange, β2m ELISA)
Measure name: Peptide exchange

Substance	Measured result
194 (KLLEEVQLL; listed as Homo sapiens) [compound 194]	++ (≧20% = ++)
5 (GLVDIMVHL; listed as Homo sapiens) [compound 5]	+++ (≧50 = +++)
242 (KLQEEIPVL; listed as Homo sapiens) [compound 242]	+++ (≧50 = +++)
52 (TIGIPFPNV; listed as Homo sapiens) [compound 52]	++ (≧20% = ++)
140 (FLDSQITTV; listed as Homo sapiens) [compound 140]	+++ (≧50 = +++)

* * *

Target: HLA-A*02:01 (Homo sapiens, UniProt P04439, D140Y/D185E/D98H/E176V/E277Q/G131W/G231S/I119V/I121R/I166T/I218V/L300P/L318F/N151K/N90K/P208A/P217A/Q86G/Q94H/R138H/R169H/T345S)
Construct: made in house
Assay: MHC binding assay: UV-ligand exchange with β2m ELISA (peptide exchange yield)
Settings: binding to HLA-A*02:01 evaluated by peptide exchange yield (UV-ligand exchange, β2m ELISA)

Substance	Peptide exchange
208 (HLNNDRNPL; listed as Homo sapiens) [compound 208]	++ (≧20% = ++)
101 (SLLEVNEASSV; listed as Homo sapiens) [compound 101]	+++ (≧50 = +++)
199 (SVADLAHVL; listed as Homo sapiens) [compound 199]	++ (≧20% = ++)
210 (GLAGDNIYL; listed as Homo sapiens) [compound 210]	+++ (≧50 = +++)
257 (KLIDHQGLYL; listed as Homo sapiens) [compound 257]	+++ (≧50 = +++)
218 (SLTGANITV; listed as Homo sapiens) [compound 218]	+++ (≧50 = +++)
191 (AAIEIFEKV; listed as Homo sapiens) [compound 191]	+++ (≧50 = +++)
233 (SLFESLEYL; listed as Homo sapiens) [compound 233]	+++ (≧50 = +++)
106 (VLLGSVVIFA; listed as Homo sapiens) [compound 106]	++ (≧20% = ++)
223 (ALHPVQFYL; listed as Homo sapiens) [compound 223]	+++ (≧50 = +++)
70 (GLTEKTVLV; listed as Homo sapiens) [compound 70]	++ (≧20% = ++)
77 (ALYGNVQQV; listed as Homo sapiens) [compound 77]	+++ (≧50 = +++)
124 (ALLLRLFTI; listed as Homo sapiens) [compound 124]	++ (≧20% = ++)
274 (TLYNPERTITV; listed as Homo sapiens) [compound 274]	+++ (≧50 = +++)
109 (ILGSFELQL; listed as Homo sapiens) [compound 109]	+++ (≧50 = +++)
61 (ALYPKEITL; listed as Homo sapiens) [compound 61]	+++ (≧50 = +++)
249 (YLYQILQGI; listed as Homo sapiens) [compound 249]	+++ (≧50 = +++)
271 (VLIEYNFSI; listed as Homo sapiens) [compound 271]	+++ (≧50 = +++)
222 (LLTGVFAQL; listed as Homo sapiens) [compound 222]	++ (≧20% = ++)

These data points were gathered from patent US20160279215A1.
